- assay-text: Animal pharmacokinetic study
- Format: in vivo, rats
- recorded-conditions: rat, po; male rats, single intragastric administration, 5 mg/kg, plasma
property-label: Tmax (h)

smiles-input | property-label | value-measured
Cn1cc(-c2nc(N=S(C)(C)=O)ccc2Oc2ccc(F)cc2F)c2cc[nH]c2c1=O | Tmax | 2.67

* * *

- assay-text: Animal pharmacokinetic study
- Type: in vivo, rats
- recorded-conditions: rat, po; male rats, single intragastric administration, 5 mg/kg, plasma
property-label: half-life

smiles-input | property-label | value-measured
Cn1cc(-c2nc(N=S(C)(C)=O)ccc2Oc2ccc(F)cc2F)c2cc[nH]c2c1=O | half-life | 5.25 h
